Data origin, for the record: patent US20190085054A1

Catalogue of MMP9 Inhibition Shift readings, one per entry.
target: catalytic domain of human MMP9 (human, UniProt P14780 107-444, limits assumed); assay: cell-based or functional assay
Sequence (P14780 107-444 limits assumed): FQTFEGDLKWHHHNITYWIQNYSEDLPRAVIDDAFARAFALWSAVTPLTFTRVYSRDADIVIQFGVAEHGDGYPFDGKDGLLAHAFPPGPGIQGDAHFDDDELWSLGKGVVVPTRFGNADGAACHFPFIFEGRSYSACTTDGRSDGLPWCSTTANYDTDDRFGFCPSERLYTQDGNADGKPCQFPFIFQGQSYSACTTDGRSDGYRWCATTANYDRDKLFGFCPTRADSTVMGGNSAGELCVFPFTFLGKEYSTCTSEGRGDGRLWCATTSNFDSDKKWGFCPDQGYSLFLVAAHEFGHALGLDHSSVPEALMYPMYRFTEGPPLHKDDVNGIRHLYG
Provide the reading as a plain figure in fold.

>  <binder>
TIMP-3 mutein K45E, K49E, F57N, K94N, E96T, D110N, K112T, G173T, R186N, K188T (other) CTCSPSHPQDAFCNSDIVIRAEVVGEKLVKEGPNGTLVYTIKQMKMYRGFTKMPHVQYIHTEASESLCGLNLTVNKYQYLLTGRVYNGTMYTGLCNFVERWDQLTLSQRKGLNYRYHLGCNCKIKSCYYLPCFVTSKNECLWTDMLSNFTYPGYQSKHYACINQTGGYCSWYRGWAPPDKSIINATDP

>  <result>
5

$$$$

[Q] Consider the binder shown here: TIMP-3 mutein K50N, V52T, F57N, K94N, E96T, D110N, K112T, R138T (other) CTCSPSHPQDAFCNSDIVIRAKVVGKNLTKEGPNGTLVYTIKQMKMYRGFTKMPHVQYIHTEASESLCGLNLTVNKYQYLLTGRVYNGTMYTGLCNFVERWDQLTLSQRKGLNYTYHLGCNCKIKSCYYLPCFVTSKNECLWTDMLSNFGYPGYQSKHYACIRQKGGYCSWYRGWAPPDKSIINATDP What is its recorded MMP9 Inhibition Shift?
[A] 70

[Q] Input TIMP-3 mutein K45E, K50N, V52T, K94N, E96T, D110N, K112T, R138T, G173T (other) CTCSPSHPQDAFCNSDIVIRAEVVGKNLTKEGPFGTLVYTIKQMKMYRGFTKMPHVQYIHTEASESLCGLNLTVNKYQYLLTGRVYNGTMYTGLCNFVERWDQLTLSQRKGLNYTYHLGCNCKIKSCYYLPCFVTSKNECLWTDMLSNFTYPGYQSKHYACIRQKGGYCSWYRGWAPPDKSIINATDP
[A] 1
